// data source = patent US11535607B2

Listed next: entries and their corresponding IC50.
- measured target: UniProtKB Q96DB2
- test: Probe binding HDAC11 time resolved fluorescence (TRF) assay
- condition set: Table 2, read-out: HDAC11 IC50 Range

As a guide, the following entries are already answered.
{"compound": "CC1(C)c2cccc(C(=O)NO)c2CN1c1nc2cc(C(F)(F)F)ccc2o1", "measured target": "UniProtKB Q96DB2", "IC50": "< 500 nM"}
{"compound": "CC1(C)c2cccc(C(=O)NO)c2CN1c1nc2ncccc2s1", "measured target": "UniProtKB Q96DB2", "IC50": "> 1000 nM"}
{"compound": "CC1(C)c2cccc(C(=O)NO)c2CN1C(=O)Nc1ccnc(C(F)(F)F)c1", "measured target": "UniProtKB Q96DB2", "IC50": "< 500 nM"}
{"compound": "CC1(C)c2cccc(C(=O)NO)c2CN1c1nc2ccccc2o1", "measured target": "UniProtKB Q96DB2", "IC50": "< 500 nM"}

Request the reported IC50 associated with O=C(NO)c1cccc2[nH]c(-c3ccc(C(F)(F)F)cc3)cc12
500 to 1000 nM

Request the reported IC50 associated with CC1(C)c2cccc(C(=O)NO)c2CN1c1cc(C#N)c(C(F)(F)F)cn1
< 500 nM

Request the reported IC50 associated with O=C(NO)c1cccc2c1CN(c1cnc3cccnc3c1)C2
> 1000 nM

Request the reported IC50 associated with Cc1cnc(N2Cc3cccc(C(=O)NO)c3C2)[nH]1
> 1000 nM

Request the reported IC50 associated with CC1(C)c2cccc(C(=O)NO)c2CN1c1ncc(C(F)(F)F)cn1
< 500 nM

* * *

- test: Mouse pharmacokinetic study (i.v. and i.p.)
- Type: in vivo
- condition set: mouse, in vivo; IV 1 mg/kg, male Balb/c nude mice
recorded metric: C0 (µM)
Output spec: scalar in µM, unitless text.

Request the reported C0 associated with CC1(C)c2cccc(C(=O)NO)c2CN1c1cnc(C(F)(F)F)cn1 [Compound 22-8]
3.5

* * *

- measured target: full-length human HDAC11 (Homo sapiens (Human), UniProt Q96DB2)
- Sequence (Q96DB2 whole entry): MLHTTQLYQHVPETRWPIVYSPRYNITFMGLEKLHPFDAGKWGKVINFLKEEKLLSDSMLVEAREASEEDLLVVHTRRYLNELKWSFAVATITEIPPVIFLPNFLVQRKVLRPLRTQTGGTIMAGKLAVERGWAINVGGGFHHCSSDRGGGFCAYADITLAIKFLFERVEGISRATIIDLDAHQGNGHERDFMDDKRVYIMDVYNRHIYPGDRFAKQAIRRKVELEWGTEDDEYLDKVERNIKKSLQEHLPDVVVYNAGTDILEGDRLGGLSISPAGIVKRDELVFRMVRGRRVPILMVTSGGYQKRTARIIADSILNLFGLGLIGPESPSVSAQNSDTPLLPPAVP
- test: HDAC11 deacetylase electrophoretic mobility shift assay (Nanosyn)
- Format: biochemical
- condition set: mobility shift assay, Table 5; read-out: HDAC11 IC50
pIC50: −log10 of the molar value.
Listed next: entries and their corresponding pIC50.

Request the reported pIC50 associated with Cl.O=C(NO)c1cccc2c1CN(c1nc3c([nH]1)CCCC3)C2 [Compound 1-4, hydrochloride]
< 6.00

Request the reported pIC50 associated with Cc1nc(N2Cc3cccc(C(=O)NO)c3C2)[nH]c1C.Cl [Compound 1-2, hydrochloride]
< 6.00

* * *

- measured target: UniProtKB Q96DB2
- test: Probe binding HDAC11 time resolved fluorescence (TRF) assay
- condition set: Table 2, read-out: HDAC11 IC50 Range
recorded metric: IC50

Request the reported IC50 associated with O=C(NO)c1cccc2c1CN(c1ncc3ccccc3n1)C2
> 1000 nM

Request the reported IC50 associated with O=C(NO)c1cccc2c1CN(c1ccc(C(F)(F)F)cn1)C2
< 500 nM

Request the reported IC50 associated with CC1(C)c2cccc(C(=O)NO)c2CN1c1cnc(C(F)(F)F)nc1
< 500 nM

Request the reported IC50 associated with O=C(NO)c1cccc2c1CN(c1nc3cc(C(F)(F)F)ccc3o1)C2=O
< 500 nM

Request the reported IC50 associated with CC1(C)c2cccc(C(=O)NO)c2CN1c1nc2cc(C(F)(F)F)ccc2s1
< 500 nM

* * *

- measured target: full-length human HDAC11 (Homo sapiens (Human), UniProt Q96DB2)
- test: Probe binding HDAC11 time resolved fluorescence (TRF) assay
- condition set: Table 2, read-out: HDAC11 IC50 Range
- Protocol: The probe binding HDAC11 assay was performed using a time resolved fluorescence (TRF) assay format. Recombinant N-terminal GST tag full-length human HD AC 11 was expressed and purified from baculovirus in Sf9 insect cells (SignalChem, #H93-30G-1000). […] Data from HD AC 11 Assays were reported as percent inhibition (inh) compared with control wells based on the following equation: % inh=1−((FLU−AveLow)/(AveHigh−AveLow)) where FLU=measured time resolved fluorescence. […]
Counter-ions that a name gives are not always drawn.
Listed next: entries and their corresponding IC50.

As a guide, the following entries are already answered.
{"molecule": "O=C(NO)c1cccc2c1CN(c1nc3c([nH]1)C[C@@H](C(F)(F)F)CC3)C2 (single isomer, unassigned) [Compound 2-2, hydrochloride]", "IC50": "< 500 nM"}
{"molecule": "O=C(NO)c1cccc2c1N[C@@H](c1ccc(C(F)(F)F)cc1)C2", "IC50": "< 500 nM"}
{"molecule": "CC1(C)c2cccc(C(=O)NO)c2CN1C(=O)Nc1cncc(C(F)(F)F)c1", "IC50": "> 1000 nM"}

Request the reported IC50 associated with O=C(NO)c1cccc2c1CN(c1nc3cccnc3o1)C2
> 1000 nM

Request the reported IC50 associated with CC1(C)c2cccc(C(=O)NO)c2CN1c1nc2c(o1)CC(C(F)(F)F)CC2 (stereo not drawn)
< 500 nM

Request the reported IC50 associated with O=C(NO)c1cccc2c1CN(c1nc3ccncc3[nH]1)C2
> 1000 nM

Request the reported IC50 associated with O=C(NO)c1cccc2c1CN(c1nc3ccccc3s1)C2
< 500 nM

Request the reported IC50 associated with CC1(C)c2cccc(C(=O)NO)c2CN1C(=O)Nc1ccc(C(F)(F)F)nc1
500 to 1000 nM

Request the reported IC50 associated with O=C(NO)c1cccc2c1NC(c1ccc(C(F)(F)F)cc1)C2 (stereo not drawn)
500 to 1000 nM

* * *

- measured target: full-length human HDAC11 (Homo sapiens (Human))
- test: HDAC11 deacetylase electrophoretic mobility shift assay (Nanosyn)
- Type: biochemical
- condition set: mobility shift assay, Table 3, mean of at least two runs; read-out: HDAC 11 IC50
Listed next: entries and their corresponding IC50.

As a guide, the following entries are already answered.
{"smiles repr": "O=C(NO)c1ccc2c(c1)CN(c1nc3ccccc3[nH]1)CC2", "IC50": "> 2 µM"}
{"smiles repr": "O=C(NO)c1ccc2c(c1)CCN(c1nc3ccccc3[nH]1)C2", "IC50": "> 2 µM"}
{"smiles repr": "O=C(NO)c1cccc2c1CCN(c1nc3ccccc3[nH]1)C2", "IC50": "0.51 to 2 µM"}

Next compound, IC50 to be filled in.
Please provide the recorded IC50 for O=C(NO)c1cccc2c1CN(c1nc3ccccc3[nH]1)CC2 , tested on full-length human HDAC11 (Homo sapiens (Human)).
> 2 µM

* * *

- measured target: full-length human HDAC11 (Homo sapiens (Human), UniProt Q96DB2)
- test: HDAC11 deacetylase electrophoretic mobility shift assay (Nanosyn)
- Type: biochemical
- condition set: mobility shift assay, Table 7; read-out: HDAC IC50, HDAC 11
pIC50: −log10 of the molar value.
recorded metric: pIC50

Request the reported pIC50 associated with CC1(C)c2cccc(C(N)=O)c2CN1c1cnc(C(F)(F)F)cn1
< 6.00

* * *

- measured target: full-length human HDAC11 (Homo sapiens (Human))
- test: HDAC11 deacetylase electrophoretic mobility shift assay (Nanosyn)
- Assay type: biochemical
- condition set: comparison with parent or lead compound

{"compound": "O=C(NO)c1cccc2c1CN(c1ccc(C(F)(F)F)cn1)C2 [Compound 45-1]", "measured target": "full-length human HDAC11 (Homo sapiens (Human))", "HDAC11 potency, in words": "improved potency"}
{"compound": "O=C(NO)c1cccc2c1CN(c1nc3ccccc3o1)C2 [Compound 15-1]", "measured target": "full-length human HDAC11 (Homo sapiens (Human))", "HDAC11 potency, in words": "improved potency"}

* * *

- measured target: full-length human HDAC11 (Homo sapiens (Human), UniProt Q96DB2)
- test: Probe binding HDAC11 time resolved fluorescence (TRF) assay
- condition set: Table 2, read-out: HDAC11 IC50 Range
pIC50: −log10 of the molar value.
Listed next: entries and their corresponding pIC50.

As a guide, the following entries are already answered.
{"smiles repr": "O=C(NO)c1cccc2c1CN(c1nc3ccc(C(F)(F)F)cc3[nH]1)C2", "pIC50": "> 6.30"}
{"smiles repr": "O=C(NO)c1cccc2c1CN(c1nc3c([nH]1)CNCC3)C2", "pIC50": "< 6.00"}
{"smiles repr": "CC1(C)c2cccc(C(=O)NO)c2CN1c1ccc(C(F)(F)F)c(C#N)n1", "pIC50": "> 6.30"}
{"smiles repr": "COCCn1c(N2Cc3cccc(C(=O)NO)c3C2)nc2ccccc21", "pIC50": "< 6.00"}

Next compound, pIC50 to be filled in.
Request the reported pIC50 associated with O=C(NO)c1cccc2c1CN(c1ccc3ncccc3n1)C2
< 6.00

* * *

- test: Mouse pharmacokinetic study (i.v. and i.p.)
- Format: in vivo
- condition set: mouse, in vivo; IV 1 mg/kg, male Balb/c nude mice
recorded metric: clearance (mL/min/kg)
Output spec: scalar in mL/min/kg, unitless text.

Request the reported clearance associated with CC1(C)c2cccc(C(=O)NO)c2CN1c1cnc(C(F)(F)F)cn1
42
